Each entry below lists one item and its recorded pKd value.
- test.target: Human PCSK9 (Genbank EF692496) containing a histidine (His)8 C-terminal tag (UniProt Q8NBP7 31-692)
- Sequence (Q8NBP7 other isoform, or with tags, fused parts or gaps): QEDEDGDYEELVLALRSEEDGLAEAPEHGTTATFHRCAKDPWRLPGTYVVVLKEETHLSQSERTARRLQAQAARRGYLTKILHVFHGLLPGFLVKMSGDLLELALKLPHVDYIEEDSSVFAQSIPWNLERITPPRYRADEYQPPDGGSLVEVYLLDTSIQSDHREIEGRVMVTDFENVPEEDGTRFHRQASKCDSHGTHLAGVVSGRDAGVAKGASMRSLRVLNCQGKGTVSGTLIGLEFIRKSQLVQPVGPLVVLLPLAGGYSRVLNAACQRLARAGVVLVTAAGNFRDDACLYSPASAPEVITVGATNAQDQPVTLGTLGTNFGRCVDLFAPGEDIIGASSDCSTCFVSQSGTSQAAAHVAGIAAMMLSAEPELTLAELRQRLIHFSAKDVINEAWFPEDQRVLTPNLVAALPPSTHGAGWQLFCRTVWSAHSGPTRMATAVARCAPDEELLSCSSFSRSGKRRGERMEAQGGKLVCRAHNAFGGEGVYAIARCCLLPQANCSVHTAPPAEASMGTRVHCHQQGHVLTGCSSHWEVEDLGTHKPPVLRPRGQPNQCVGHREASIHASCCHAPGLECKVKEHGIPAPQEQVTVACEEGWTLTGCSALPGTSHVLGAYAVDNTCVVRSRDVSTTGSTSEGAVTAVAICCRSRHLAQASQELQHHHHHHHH
- experiment.description: BIAcore SPR; FIG. 3A
pKd: −log10 of the molar value.

binder: YW508.20.33 (antibody, V domains shown) VH: EVQLVESGGGLVQPGGSLRLSCAASGFTFSSTAIHWVRQAPGKGLEWVARISPANGNTNYADSVKGRFTISADTSKNTAYLQMNSLRAEDTAVYYCARWIGSRELYIMDYWGQGTLVTVSS VL: DIQMTQSPSSLSASVGDRVTITCRASQDVSTAVAWYQQKPGKAPKLLIYSASFLYSGVPSRFSGSGSGTDFTLTISSLQPEDFATYYCQQSYPALHTFGQGTKVEIKR
pKd: 9.39
--
binder: YW508.20.06 (antibody, V domains shown) VH: EVQLVESGGGLVQPGGSLRLSCAASGFTFTGYAIHWVRQAPGKGLEWVARISPANGNTNYADSVKGRFTISADTSKNTAYLQMNSLRAEDTAVYYCARWIGSRELYIMDYWGQGTLVTVSS VL: DIQMTQSPSSLSASVGDRVTITCRASQDVSTAVAWYQQKPGKAPKLLIYSASFLYSGVPSRFSGSGSGTDFTLTISSLQPEDFATYYCQQSYPSPATFGQGTKVEIKR
pKd: 9.20
--
binder: YW508.20.04 (antibody, V domains shown) VH: EVQLVESGGGLVQPGGSLRLSCAASGFTFTGYAIHWVRQAPGKGLEWVGRISPANGNTNYADSVKGRFTISADTSKNTAYLQMNSLRAEDTAVYYCARWIGSRELYIMDYWGQGTLVTVSS VL: DIQMTQSPSSLSASVGDRVTITCRASQDVSTAVAWYQQKPGKAPKLLIYSASFLYSGVPSRFSGSGSGTDFTLTISSLQPEDFATYYCQQSYPAPATFGQGTKVEIKR
pKd: 9.12

Value source: patent US20120195910A1
